System: MEL-28
Test: Inhibition of cell growth by counting cells, MEL-28
Assay type: cell-based, human
Conditions: Homo sapiens, SK-MEL-28, 72 h; three days of incubation; read-out: IC50 (molar) MEL-28
measurement type: pIC50
pIC50 here: minus log base 10 of the concentration, concentration in moles per litre.

Exam item: What pIC50 appears in the records for this compound with MEL-28? CCCCCCCC(=O)Oc1cc2c(cc1OC)[C@@]1(CS[C@@H]3c4c(OC(C)=O)c(C)c5c(c4[C@H](COC1=O)N1C3[C@H]3c4c(cc(C)c(OC)c4OC(=O)CCCCCCC)C[C@@H]([C@@H]1C#N)N3C)OCO5)NCC2 (stereo partly shown)
Marked response: 7.01

Exam item: What measured pIC50 is associated with C=CCOC(=O)Oc1cc2c(cc1OC)[C@@]1(CS[C@@H]3c4c(OC(C)=O)c(C)c5c(c4[C@H](COC1=O)N1C3[C@H]3c4c(cc(C)c(OC)c4OC(=O)OCC=C)C[C@@H]([C@@H]1C#N)N3C)OCO5)NCC2 (stereo partly shown) on MEL-28?
Marked response: 8.27

Exam item: Requested read-out pIC50, target or system MEL-28, entry CCCCCCCCCCCCCCCC(=O)Oc1c(C)c2c(c3c1[C@H]1SC[C@]4(NCCc5cc(O)c(OC)cc54)C(=O)OC[C@@H]3N3C1[C@H]1c4c(cc(C)c(OC)c4O)C[C@@H]([C@@H]3O)N1C)OCO2 (stereo partly shown)
Marked response: 7.28

Exam item: Can you look up pIC50 on MEL-28 for COc1cc2c(cc1OC(=O)OC(C)(C)C)CCN[C@]21CS[C@@H]2c3c(OC(C)=O)c(C)c4c(c3[C@H](COC1=O)N1C2[C@H]2c3c(cc(C)c(OC)c3O)C[C@@H]([C@@H]1C#N)N2C)OCO4 (stereo partly shown) ?
Marked response: 9.94
